System: MDA-MB-436
Test: normalised response (% of control), CellTiter-Glo; higher = more viable cells (100 = DMSO, 0 = benzethonium chloride kill control)
Details: incubation time: 72 h
recorded_endpoint: normalised response (%)
Give your result in % as a bare value.

Would you please look over these solved cases?
- CC[C@H](Nc1ncnc2[nH]cnc12)c1nc2cccc(F)c2c(=O)n1-c1ccccc1 [GS-1101] (100 nM): 90
- Cc1cnc(NC(=O)Nc2cc(Br)c(C)cc2OC[C@@H]2CNCCO2)cn1 [Rabusertib] (10 nM): 115
- O=C(Cc1ccc(-c2ccc(OCCN3CCOCC3)cc2)cn1)NCc1ccccc1 [KX2-391] (100 nM): 39.5

q: Please give the measured normalised response for this compound: COc1cc2nccc(Oc3ccc(NC(=O)Nc4cc(C)on4)c(Cl)c3)c2cc1OC [Tivozanib] (100 nM)
a: 91.2

q: # lookup: normalised response of CC1=C(/C=C/C(C)=C/C=C/C(C)=C/C(=O)O)C(C)(C)CCC1 [Tretinoin] (100 nM)
a: 100

q: Given the compound O=C(O)C1(C(=O)O)CCC1.[NH2-].[NH2-].[Pt+2] [Carboplatin] (100 nM) , what is its reported normalised response?
a: 103

q: Recorded normalised response for COc1cc2c(NC3CCN(C(C)C)CC3)nc(C3CCCCC3)nc2cc1OCCCN1CCCC1 [UNC0638] (100 nM) , please?
a: 102

q: Consider the compound shown here: C=CCc1cccc(/C=N/NC(=O)CN2CCN(Cc3ccccc3)CC2)c1O [PAC-1] (100 nM) What is its recorded normalised response?
a: 99.3

q: Return reported normalised response; argument: Cc1ccc(-c2cc(C(F)(F)F)nn2-c2ccc(S(N)(=O)=O)cc2)cc1 [Celecoxib] (100 nM)
a: 97.4

The values you see were collected from the supplement of paper PMC4862054.
